These entries and their values trace back to the supplement of paper PMC10307832.

test system: EMC-BAC-2; assay: relative viability (nuclei count vs DMSO), 5 days (fraction); higher = more cells survive; details: first compound 0.01 µM
// assign true if relative viability falls strictly below 0.4, else false (ties count as false)

O=c1cc(N2CCOCC2)oc2c(-c3cccc4c3sc3ccccc34)cccc12 + Nc1ncn([C@H]2C[C@H](O)[C@@H](CO)O2)c(=O)n1 [Decitabine] (partner 2 µM) :: false

Query block: Please determine if CCN(CC)CCCCNc1ncc2cc(-c3cc(OC)cc(OC)c3)c(NC(=O)NC(C)(C)C)nc2n1 + N=C(N)NC(=N)NCCc1ccccc1 [Phenformin] (partner 250 µM) is below 0.4 in terms of relative viability.
Result block: false

Query block: Please determine if O=c1cc(N2CCOCC2)oc2c(-c3cccc4c3sc3ccccc34)cccc12 + Cc1nc(Nc2ncc(C(=O)Nc3c(C)cccc3Cl)s2)cc(N2CCN(CCO)CC2)n1 [Dasatinib] (partner 0.075 µM) is below 0.4 in terms of relative viability.
Result block: true

Query block: Please determine if CCN(CC)CCCCNc1ncc2cc(-c3cc(OC)cc(OC)c3)c(NC(=O)NC(C)(C)C)nc2n1 + Cc1nc(Nc2ncc(C(=O)Nc3c(C)cccc3Cl)s2)cc(N2CCN(CCO)CC2)n1 [Dasatinib] (partner 0.075 µM) is below 0.4 in terms of relative viability.
Result block: true

Query block: Please determine if O=c1cc(N2CCOCC2)oc2c(-c3cccc4c3sc3ccccc34)cccc12 + Cc1cc(Nc2cc(N3CCN(C)CC3)nc(Sc3ccc(NC(=O)C4CC4)cc3)n2)n[nH]1 [Tozasertib] (partner 0.1 µM) is below 0.4 in terms of relative viability.
Result block: true

* * *

system: NCI-H1437; assay: relative viability (nuclei count vs DMSO), 5 days (fraction); higher = more cells survive; conditions: first compound 1 µM
// assign TRUE if relative viability falls strictly below 0.3, else FALSE (ties count as FALSE)

CCN(CC)CCCCNc1ncc2cc(-c3cc(OC)cc(OC)c3)c(NC(=O)NC(C)(C)C)nc2n1 + CCNC(=O)c1noc(-c2cc(C(C)C)c(O)cc2O)c1-c1ccc(CN2CCOCC2)cc1 [Luminespib] (partner 0.01 µM) :: FALSE
CCN(CC)CCCCNc1ncc2cc(-c3cc(OC)cc(OC)c3)c(NC(=O)NC(C)(C)C)nc2n1 + O=C(CCCCCCC(=O)Nc1ccccc1)NO [Vorinostat] (partner 1 µM) :: FALSE
O=c1cc(N2CCOCC2)oc2c(-c3cccc4c3sc3ccccc34)cccc12 + N=C(N)NC(=N)NCCc1ccccc1 [Phenformin] (partner 250 µM) :: TRUE

Query block: Please determine if CCN(CC)CCCCNc1ncc2cc(-c3cc(OC)cc(OC)c3)c(NC(=O)NC(C)(C)C)nc2n1 + CC(=O)Nc1cccc(-n2c(=O)n(C3CC3)c(=O)c3c(Nc4ccc(I)cc4F)n(C)c(=O)c(C)c32)c1 [Trametinib] (partner 0.02 µM) is below 0.3 in terms of relative viability.
Result block: FALSE

Query block: Please determine if CCN(CC)CCCCNc1ncc2cc(-c3cc(OC)cc(OC)c3)c(NC(=O)NC(C)(C)C)nc2n1 + CC(=O)c1c(C)c2cnc(Nc3ccc(N4CCNCC4)cn3)nc2n(C2CCCC2)c1=O [Palbociclib] (partner 0.5 µM) is below 0.3 in terms of relative viability.
Result block: TRUE

* * *

test system: LK-2; assay: relative viability (nuclei count vs DMSO), 5 days (fraction); higher = more cells survive; conditions: first compound 0.6325 µM
relative viability values by entry
// return just the number, without any unit appended

COCC1(CO)C(=O)C2CCN1CC2 (centres undefined) [PRIMA-1MET] + COc1cccc2cc(-c3nc([C@H]4CC[C@H](C(=O)O)CC4)n4ncnc(N)c34)[nH]c12 [OSI-027] (partner 0.5 µM) :: 0.186
COCC1(CO)C(=O)C2CCN1CC2 (centres undefined) [PRIMA-1MET] + NC(=O)Nc1cc(-c2cccc(F)c2)sc1C(=O)N[C@H]1CCCNC1 [AZD7762] (partner 0.2 µM) :: 0.405
COCC1(CO)C(=O)C2CCN1CC2 (centres undefined) [PRIMA-1MET] + CS(=O)(=O)CCNCc1ccc(-c2ccc3ncnc(Nc4ccc(OCc5cccc(F)c5)c(Cl)c4)c3c2)o1 [Lapatinib] (partner 2 µM) :: 0.755

Now for a further compound.
Query block: What measured relative viability is associated with COCC1(CO)C(=O)C2CCN1CC2 (centres undefined) [PRIMA-1MET] + CS(=O)(=O)N1CCN(Cc2cc3nc(-c4cccc5[nH]ncc45)nc(N4CCOCC4)c3s2)CC1 [Pictilisib] (partner 1 µM) on LK-2?
Result block: 0.57

* * *

relative viability values by entry
test system: NCI-H1437; assay: relative viability (nuclei count vs DMSO), 5 days (fraction); higher = more cells survive; details: first compound 0.1 µM
// return just the number, without any unit appended

Worked examples, 2 molecules total:
CCN(CC)CCCCNc1ncc2cc(-c3cc(OC)cc(OC)c3)c(NC(=O)NC(C)(C)C)nc2n1 + NC(=O)Nc1cc(-c2cccc(F)c2)sc1C(=O)N[C@H]1CCCNC1 [AZD7762] (partner 0.2 µM) :: 1.17
O=c1cc(N2CCOCC2)oc2c(-c3cccc4c3sc3ccccc34)cccc12 + CC(=O)c1c(C)c2cnc(Nc3ccc(N4CCNCC4)cn3)nc2n(C2CCCC2)c1=O [Palbociclib] (partner 0.5 µM) :: 0.282

Query block: Can you share its relative viability? I mean this molecule: O=c1cc(N2CCOCC2)oc2c(-c3cccc4c3sc3ccccc34)cccc12 + O=C(CCCCCCC(=O)Nc1ccccc1)NO [Vorinostat] (partner 1 µM)
Result block: 0.866

* * *

relative viability values by entry
test system: UMC-11; test: relative viability (nuclei count vs DMSO), 5 days (fraction); higher = more cells survive; conditions: first compound 0.3162 µM
// return just the number, without any unit appended

CCN(CC)CCCCNc1ncc2cc(-c3cc(OC)cc(OC)c3)c(NC(=O)NC(C)(C)C)nc2n1 + Cc1cc(Nc2cc(N3CCN(C)CC3)nc(Sc3ccc(NC(=O)C4CC4)cc3)n2)n[nH]1 [Tozasertib] (partner 0.1 µM) :: 0.195
CCN(CC)CCCCNc1ncc2cc(-c3cc(OC)cc(OC)c3)c(NC(=O)NC(C)(C)C)nc2n1 + Nc1nc2[nH]cc(CCc3ccc(C(=O)N[C@@H](CCC(=O)O)C(=O)O)cc3)c2c(=O)[nH]1 [Pemetrexed] (partner 0.2 µM) :: 0.986
O=c1cc(N2CCOCC2)oc2c(-c3cccc4c3sc3ccccc34)cccc12 + CC(=O)c1c(C)c2cnc(Nc3ccc(N4CCNCC4)cn3)nc2n(C2CCCC2)c1=O [Palbociclib] (partner 0.5 µM) :: 0.347
CCN(CC)CCCCNc1ncc2cc(-c3cc(OC)cc(OC)c3)c(NC(=O)NC(C)(C)C)nc2n1 + N=C(N)NC(=N)NCCc1ccccc1 [Phenformin] (partner 250 µM) :: 0.343
O=c1cc(N2CCOCC2)oc2c(-c3cccc4c3sc3ccccc34)cccc12 + CS(=O)(=O)N1CCN(Cc2cc3nc(-c4cccc5[nH]ncc45)nc(N4CCOCC4)c3s2)CC1 [Pictilisib] (partner 1 µM) :: 0.819

Query block: Can you share its relative viability? I mean this compound: O=c1cc(N2CCOCC2)oc2c(-c3cccc4c3sc3ccccc34)cccc12 + CS(=O)(=O)CCNCc1ccc(-c2ccc3ncnc(Nc4ccc(OCc5cccc(F)c5)c(Cl)c4)c3c2)o1 [Lapatinib] (partner 2 µM)
Result block: 0.995

Query block: Can you share its relative viability? I mean this compound: O=c1cc(N2CCOCC2)oc2c(-c3cccc4c3sc3ccccc34)cccc12 + O=C(CCCCCCC(=O)Nc1ccccc1)NO [Vorinostat] (partner 1 µM)
Result block: 0.429

* * *

relative viability values by entry
system: NCI-H1734; experiment: relative viability (nuclei count vs DMSO), 5 days (fraction); higher = more cells survive; details: first compound 0.2 µM

Worked examples, 4 compounds total:
COCC1(CO)C(=O)C2CCN1CC2 (stereo not given) [PRIMA-1MET] + CC(=O)c1c(C)c2cnc(Nc3ccc(N4CCNCC4)cn3)nc2n(C2CCCC2)c1=O [Palbociclib] (partner 0.5 µM) :: 0.362
COCC1(CO)C(=O)C2CCN1CC2 (stereo not given) [PRIMA-1MET] + COc1cccc2cc(-c3nc([C@H]4CC[C@H](C(=O)O)CC4)n4ncnc(N)c34)[nH]c12 [OSI-027] (partner 0.5 µM) :: 0.709
COCC1(CO)C(=O)C2CCN1CC2 (stereo not given) [PRIMA-1MET] + Cc1cc(Nc2cc(N3CCN(C)CC3)nc(Sc3ccc(NC(=O)C4CC4)cc3)n2)n[nH]1 [Tozasertib] (partner 0.1 µM) :: 0.294
COCC1(CO)C(=O)C2CCN1CC2 (stereo not given) [PRIMA-1MET] + Nc1ncn([C@H]2C[C@H](O)[C@@H](CO)O2)c(=O)n1 [Decitabine] (partner 2 µM) :: 0.481

Now for a further compound.
Query block: Can you share its relative viability? I mean this compound: COCC1(CO)C(=O)C2CCN1CC2 (stereo not given) [PRIMA-1MET] + Nc1nc2[nH]cc(CCc3ccc(C(=O)N[C@@H](CCC(=O)O)C(=O)O)cc3)c2c(=O)[nH]1 [Pemetrexed] (partner 0.2 µM)
Result block: 0.403
